Hey, just so you know, these numbers are from PubChem BioAssay (NCI).

- System: M14 melanoma
- assay.details: NCI tumour cell line growth inhibition, 48 h
reported.endpoint: TGI (µM)
Unit µM implied. Number only.

CCN(CC)c1ccc(/C=C/C2=[N+](C)c3ccccc3C2(C)C)c(C)c1 :: 1.64

Measured TGI of "COc1nc2c(N3CCCC3)nc(N3CCNCC3)nc2nc1NCc1ccccc1" : 3.03

The molecule identified as Nc1ccccc1C(=O)C(Br)C(Br)c1ccc2c(c1)OCO2 (stereo not given) registered its TGI at 41.3

----------
- Tested on: ACHN renal
- assay.details: NCI tumour cell line growth inhibition, 48 h
TGI: recorded values
Could you give me the number in µM? Just the number is fine.

O=C1/C(=C/c2ccc([N+](=O)[O-])cc2)COc2ccc(O)cc21 :: 4.12

The compound listed as "COc1nc2c(N3CCCC3)nc(N3CCNCC3)nc2nc1NCc1ccccc1" shows TGI equal to 7.01

Recorded TGI (compound "CC(C)Oc1ccc(C(=O)Cn2ccnc2)cc1-n1c(CN2CCN(C(=O)COc3ccc(Cl)cc3)CC2)nc2ccccc2c1=O" ): 3.14

// TGI value for "Nc1nc(Nc2ccccc2)sc1C(=O)c1ccco1" : 62.2

----------
- System: COLO 205 colon
- assay.details: NCI tumour cell line growth inhibition, 48 h
Reported log10 TGI is given for each of the following compounds.
Give log10 of TGI, with TGI taken in µM.

COc1cc(C2c3cc4c(cc3[C@@H](Nc3ccc5c(c3)OCO5)C3COC(=O)[C@H]23)OCO4)cc(OC)c1O (some centres not stated) :: 0.87
C=CC(=O)N1C/C(=C\c2ccc(Cl)cc2)C(=O)/C(=C/c2ccc(Cl)cc2)C1 :: -0.14
CCN(CC)c1ccc(/C=C/C2=[N+](C)c3ccccc3C2(C)C)c(C)c1 :: -0.90
COc1cc2nc(-c3ccc(C(F)(F)F)cc3)cc(OCCCN3CCCC3)c2cc1OC :: 0.66
COc1ccc2c(NCCCCCCNc3c4ccccc4nc4cc(OC)ccc34)c3ccccc3nc2c1 :: -0.72
COc1cccc2c(=O)c3c(sc12)c(NCCCNCCO)nc1ccccc13 :: 0.49
COc1ccc2c(c1)c(=O)c1c(NCCNCCO)ccc3c(=O)n(CCN(C)C)c(=O)n2c31 :: -0.61
CC1OC(c2ccc3c(c2O)C(=O)C2=C(C3=O)C3(O)C(=O)CC(C)(O)CC3(O)C=C2)CC(O)C1O (configuration not stated) :: 0.53
COc1ccc(Oc2cnn(C(Br)(Br)C(C)=O)c(=O)c2Br)cc1 :: 1.43
C[C@]12C/C(=C/O)C(=O)C(O)=C1CC[C@@H]1C2CC[C@@]2(C)C1CC[C@@H]2O (some centres not stated) :: 1.65

Query "Cc1c(C)c(CC(=O)N2CC2)c(C)c(C)c1CC(=O)N1CC1" on COLO 205 colon; log10 TGI returned: 1.47

The measured log10 TGI that "N#Cc1c(-c2ccccc2)c2c([nH]c1=O)-c1cc([N+](=O)[O-])ccc1CCC2" showed for COLO 205 colon is 1.74

----------
- Tested on: MDA-MB-231 breast
- assay.details: NCI tumour cell line growth inhibition, 48 h
reported.endpoint: GI50

Clc1ccc2c(c1)N(c1ncnc3ccc(-c4cnc5[nH]ncc5c4)cc13)CC2 :: 719 nM
CCNCCNc1cc(-c2ccc(C#N)cc2)c(C#N)c2nc3ccccc3n12 :: 2350 nM
CC(C)[O-].CC(C)[O-].CN(CCN(C)Cc1cc(F)cc(F)c1[O-])Cc1cc(F)cc(F)c1[O-].[Ti+4] :: 1670 nM
c1ccc(-c2nc(N3CCCNCC3)c3nc(-c4ccccc4)oc3n2)cc1 :: 1720 nM

Proceeding to the next molecule to report its GI50.
Lab note: molecule "COc1ccc(C2=C(N3CCc4ccccc43)C(=O)NC2=O)cc1" tested on MDA-MB-231 breast; recorded GI50 was > 22400 nM
